Test system: L1210 leukemia ip in BDF1 mice, survival T/C
Experiment: NCI In Vivo Anticancer Drug Screen. Data for tumor model L1210 Leukemia (intraperitoneal) in B6D2F1 (BDF1) mice
Conditions: endpoint: mean survival time; dose: 100.0 mg/kg/injection; schedule: Q04DX003 (ip); vehicle: saline
Toxic doses and inconclusive results are not listed. No stated cut-off is given here; in the data, active means T/C of 150% or more; inactive means T/C below 125%.
One label from this list, please: active, inactive

C=CCN(CC=C)CCN1CCN(CCCN2c3ccccc3Sc3ccc(C(F)(F)F)cc32)CC1 = inactive

Query: // param item: CC(=O)[C@@]1(O)CC[C@H]2[C@@H]3C[C@H](C)C4=CC(=O)CC[C@]4(C)[C@H]3[C@@H](O)C[C@@]21C ; yields the recorded call
Response: inactive

Query: Try this compound next: CN(C)CCN1C(=O)NC(C)(C)C1=O
Response: inactive

Query: Param item: Nc1n[nH]c(N)n1.[Pt]
Response: inactive

Query: Thanks! And CCCNCCCCCCNCCC ?
Response: inactive

Query: Note, next up: O=C(O)C1CCSS1 (configuration not stated)
Response: inactive

Query: Please do the same for COC1OC(CO)C(O)C(NC(=O)N(C)N=O)C1O (configuration not stated) as well.
Response: active

* * *

Readings of T/C for the listed molecules
Test system: L1210 leukemia ip in BDF1 mice, survival T/C
Experiment: NCI In Vivo Anticancer Drug Screen. Data for tumor model L1210 Leukemia (intraperitoneal) in B6D2F1 (BDF1) mice
Conditions: endpoint: mean survival time; dose: 100.0 mg/kg/injection; schedule: Q04DX003 (ip); vehicle: saline; higher = longer survival
Inconclusive results and toxic doses are left out.

Sample records with T/C:
N#CC1C=Cc2ccccc2N1C(=O)Oc1ccccc1 (stereo not given) = 104 % of control
CNC1C(OC2C(OC)OC(C)C2(O)CO)OC(CO)C(O)C1O (stereo not given) = 110 % of control
OC1C(O)C(O)C(O)C(O)C1O (stereo not given) = 98 % of control
CCN(CC)CCn1ncc2c1C1(C)CCC2C1(C)C (stereo not given) = 101 % of control
CCC(Cl)COP(=O)(OCC(Cl)CC)C(CC)P(=O)(OCC(Cl)CC)OCC(Cl)CC (stereo not given) = 91 % of control

Query: Please look up its T/C: N=C(N)SCc1ccc(CSC(=N)N)cc1
Response: 105 % of control

Query: // query: O=C1CCC(=O)N1CCCO
Response: 107 % of control

Query: Likewise for CCC(C)N (stereo not given) ?
Response: 95 % of control

Query: // same read-out, input: SC1(S)CC(c2ccc(Cl)cc2)NC(c2ccc(Cl)cc2)C1 (stereo not given)
Response: 98 % of control

Query: Try the molecule CC/C=C(CC)/C(CC)=C(\Br)CC
Response: 94 % of control

Where do the numbers come from? From PubChem BioAssay AID248.
